Tgt: FGFR1 (UniProt P11362)
Sequence (P11362 whole entry, looked up): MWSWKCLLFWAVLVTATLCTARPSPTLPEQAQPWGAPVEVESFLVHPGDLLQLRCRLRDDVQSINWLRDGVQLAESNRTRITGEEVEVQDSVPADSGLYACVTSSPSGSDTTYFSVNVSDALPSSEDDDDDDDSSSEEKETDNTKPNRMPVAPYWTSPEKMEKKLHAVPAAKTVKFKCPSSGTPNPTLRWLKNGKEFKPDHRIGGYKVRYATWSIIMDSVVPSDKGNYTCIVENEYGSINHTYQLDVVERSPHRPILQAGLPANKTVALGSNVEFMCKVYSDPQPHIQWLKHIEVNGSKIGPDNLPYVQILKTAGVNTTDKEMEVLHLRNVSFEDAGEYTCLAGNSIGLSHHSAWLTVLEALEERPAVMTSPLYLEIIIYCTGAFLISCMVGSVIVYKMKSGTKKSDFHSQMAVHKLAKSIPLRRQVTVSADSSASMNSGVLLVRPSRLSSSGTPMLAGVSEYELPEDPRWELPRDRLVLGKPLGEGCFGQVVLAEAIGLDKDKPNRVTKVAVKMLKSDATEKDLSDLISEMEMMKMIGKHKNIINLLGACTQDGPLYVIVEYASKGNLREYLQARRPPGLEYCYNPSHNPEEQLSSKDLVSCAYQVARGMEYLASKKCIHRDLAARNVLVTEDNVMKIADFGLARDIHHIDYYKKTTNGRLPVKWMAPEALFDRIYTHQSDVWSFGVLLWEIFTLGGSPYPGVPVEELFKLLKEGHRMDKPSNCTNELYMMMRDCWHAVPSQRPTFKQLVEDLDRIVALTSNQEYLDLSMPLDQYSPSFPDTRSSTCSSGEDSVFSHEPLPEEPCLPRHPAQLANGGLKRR
Assay Info: phosphorylation enrichment, bacterial display (enrichment ratio); higher = better substrate or ligand; peptides without Tyr show the background;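 note: 11-residue human phosphosite peptides and single-mutation variants displayed on the E. coli surface, counted by deep sequencing, each peptide's frequency after selection divided by its frequency in the unselected input library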;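 note: frequency after pTyr selection over input frequency; kinase dosed for 20-30% of maximal phosphorylation in three min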
Readout Type: phosphorylation enrichment
Number, no unit, nothing else.

Answered examples (2):
>  <Primary Sequence>
TVDASYFGGRG [ANTXR2_Y380_YF]

>  <Tgt>
FGFR1 (UniProt P11362)

>  <Readout Type>
phosphorylation enrichment

>  <Endpoint Value>
0.372

$$$$
>  <Primary Sequence>
MALDIYRASFF [ALK_Y1278_R1275L_YF]

>  <Tgt>
FGFR1 (UniProt P11362)

>  <Readout Type>
phosphorylation enrichment

>  <Endpoint Value>
0.558

$$$$

Okay, next one:
Request: Recorded phosphorylation enrichment for KLGDVYVNVAF [PGK1_Y161_D164V] , please?
Response: 1.01
